Cited source for all entries: patent US20220220100A1

Entries annotated with measured Chromophore Remaining (%)
Experiment: Photostability: xenon arc weathering of chromophore solutions, LCMS analysis
Type: physicochemical
Conditions: 10 wt % in Rhodiasolv IRIS; xenon arc, 82° C. bp; linearly interpolated to 0.5 MJ/m2 @ 340 nm of exposure energy
Description: Photostability (resistance to light-induced degradation) may be measured by the amount of time required for the compound, or a material comprising the compound, to degrade to a certain point under light exposure. The light exposure may be constant, or cyclic. The light transmittance or absorbance of the compound, or material comprising the compound, may be determined at both a light state and dark state prior to testing, to determine a contrast ratio. […]
Use % as the unit, but write only the number.

CCOC(=O)CCCOc1cc2oc(-c3ccc(C(C)(C)C)cc3)c(C3=C(c4cc(-c5ccc(C(C)(C)C)s5)sc4-c4sc(C(C)(C)C)cc4C)C(F)(F)C(F)(F)C3(F)F)c2cc1OCCCC(=O)OCC: 100.0

From here, focus on the item given below.
[in] Need Chromophore Remaining (%), item `CCOC(=O)CCCOc1cc2oc(-c3ccc(C(C)(C)C)cc3)c(C3=C(c4cc(-c5cc(C(C)(C)C)cs5)sc4-c4cc(C(C)(C)C)cs4)C(F)(F)C(F)(F)C3(F)F)c2cc1OCCCC(=O)OCC`
[out] 98.6

====

Entries annotated with measured Ketone (%)
Experiment: Photostability: xenon arc weathering of chromophore solutions, LCMS analysis
Format: physicochemical
Settings: 3 wt % in Rhodiasolv IRIS; xenon arc, 82° C. bp; linearly interpolated to 0.5 MJ/m2 @ 340 nm
Use % as the unit, but write only the number.

Example compounds with recorded Ketone (%):
COc1ccc2oc(-c3ccc(C(C)(C)C)cc3)c(C3=C(c4cc(-c5ccc(C(C)(C)C)s5)sc4-c4ccc(C(C)(C)C)s4)C(F)(F)C(F)(F)C3(F)F)c2c1: 0.0
COc1ccc2c(C3=C(c4cc(-c5ccc(C(C)(C)C)s5)sc4-c4ccc(C(C)(C)C)s4)C(F)(F)C(F)(F)C3(F)F)c(-c3ccc(C(C)(C)C)cc3)oc2c1: 0.0

From here, focus on the item given below.
[in] Need Ketone (%), item `COc1cc2oc(-c3ccc(C(C)(C)C)cc3)c(C3=C(c4cc(-c5cccs5)sc4-c4cccs4)C(F)(F)C(F)(F)C3(F)F)c2cc1OC`
[out] 0.0

====

Entries annotated with measured Ketone (%)
Assay: Photostability: xenon arc weathering of chromophore solutions, LCMS analysis
Assay type: physicochemical
Details: 3 wt % in Rhodiasolv IRIS; xenon arc, 82° C. bp; linearly interpolated to 0.5 MJ/m2 @ 340 nm
Use % as the unit, but write only the number.

Example compounds with recorded Ketone (%):
CC(=O)Oc1cc2oc(-c3ccc(C(C)(C)C)cc3)c(C3=C(c4cc(-c5cc(C(C)(C)C)cs5)sc4-c4cc(C(C)(C)C)cs4)C(F)(F)C(F)(F)C3(F)F)c2cc1OC(C)=O [Chromophore S396]: 1.0
COc1cc2oc(-c3ccc(C(C)(C)C)cc3)c(C3=C(c4cc(-c5ccc(C(C)(C)C)s5)sc4-c4sc(C(C)(C)C)cc4C)C(F)(F)C(F)(F)C3(F)F)c2cc1OC [Chromophore S378]: 0.0

[in] Need Ketone (%), item COc1ccc2oc(-c3ccc(C(C)(C)C)cc3)c(C3=C(c4cc(-c5cc6c(s5)C(C)(C)CCC6(C)C)sc4-c4cc5c(s4)C(C)(C)CCC5(C)C)C(F)(F)C(F)(F)C3(F)F)c2c1 [Chromophore S400]
[out] 0.8

[in] Need Ketone (%), item CC(C)(C)c1ccc(-c2oc3ccccc3c2C2=C(c3cc(-c4ccc(C(C)(C)C)s4)sc3-c3ccc(C(C)(C)C)s3)C(F)(F)C(F)(F)C2(F)F)cc1 [Chromophore S343]
[out] 0.0

[in] Need Ketone (%), item COc1cc2oc(-c3ccc(C(C)(C)C)cc3)c(C3=C(c4cc(-c5ccc(C(C)(C)C)s5)sc4-c4ccc(C(C)(C)C)s4)C(F)(F)C(F)(F)C3(F)F)c2cc1OC [Chromophore S340]
[out] 0.0

====

Assay: Solubility in Rhodiasolv IRIS solvent
Format: physicochemical
Settings: relative to the methoxy parent chromophore
Text: A compound with greater solubility allows for a formulation or material with a greater concentration of coloured molecule to be incorporated into a composition. This may allow for increasing the contrast ratio for a compound with a lesser absorbance at PSS. Examples of solubilizing groups for the compound include alkoxy, ether, ester or siloxy groups. […]
measure: Solubility (in words)

CCOC(=O)CCCOc1cc2oc(-c3ccc(C(C)(C)C)cc3)c(C3=C(c4cc(-c5ccc(C(C)(C)C)s5)sc4-c4ccc(C(C)(C)C)s4)C(F)(F)C(F)(F)C3(F)F)c2cc1OCCCC(=O)OCC [Chromophore S374]: improved
COCCOc1cc2oc(-c3ccc(C(C)(C)C)cc3)c(C3=C(c4cc(-c5ccc(C(C)(C)C)s5)sc4-c4ccc(C(C)(C)C)s4)C(F)(F)C(F)(F)C3(F)F)c2cc1OCCOC [Chromophore S364]: improved
CC(=O)Oc1cc2oc(-c3ccc(C(C)(C)C)cc3)c(C3=C(c4cc(-c5ccc(C(C)(C)C)s5)sc4-c4ccc(C(C)(C)C)s4)C(F)(F)C(F)(F)C3(F)F)c2cc1OC(C)=O [Chromophore S367]: improved

====

Entries annotated with measured RC [O] (oxidation potential of ring-closed isomer)
Experiment: Oxidation potential of ring-closed and ring-open isomers
Assay type: physicochemical
Conditions: ring-closed isomer; no unit printed in table (V relative to Ag/AgCl)
Source text: In various embodiments, at a PSS, some of the chromophore will be in the ring-closed isomer, with a small, but non-zero portion of ring-open isomer. The oxidation potential of a ring-open isomer may be more anodic than the oxidation potential of a ring-closed isomer. […]
Just the number, please.

Example molecules with recorded RC [O] (oxidation potential of ring-closed isomer):
CC(C)(C)c1ccc(-c2oc3cc(OCCN4C(=O)CCC4=O)c(OCCN4C(=O)CCC4=O)cc3c2C2=C(c3cc(-c4cc(C(C)(C)C)cs4)sc3-c3cc(C(C)(C)C)cs3)C(F)(F)C(F)(F)C2(F)F)cc1: 1.05
CC(C)(C)c1ccc(-c2oc3cc(OCCN4CCOC4=O)c(OCCN4CCOC4=O)cc3c2C2=C(c3cc(-c4cc5c(s4)C(C)(C)CCC5(C)C)sc3-c3cc4c(s3)C(C)(C)CCC4(C)C)C(F)(F)C(F)(F)C2(F)F)cc1: 0.93
COc1cc2oc(-c3ccc(C(C)(C)C)cc3)c(C3=C(c4cc(-c5cccs5)sc4-c4cccs4)C(F)(F)C(F)(F)C3(F)F)c2cc1OC: 1.02

[in] Need RC [O] (oxidation potential of ring-closed isomer), item `COc1cc2oc(-c3ccc(C(C)(C)C)cc3)c(C3=C(c4cc(-c5ccc(C(C)(C)C)s5)sc4-c4ccc(C(C)(C)C)s4)C(F)(F)C(F)(F)C3(F)F)c2cc1OC`
[out] 0.95

[in] Need RC [O] (oxidation potential of ring-closed isomer), item `COc1cc2oc(-c3ccc(C(C)(C)C)cc3)c(C3=C(c4cc(-c5cc6c(s5)C(C)(C)CCCC6(C)C)sc4-c4cc5c(s4)C(C)(C)CCCC5(C)C)C(F)(F)C(F)(F)C3(F)F)c2cc1OC`
[out] 0.91

[in] Need RC [O] (oxidation potential of ring-closed isomer), item `COc1ccc2oc(-c3ccc(C(C)(C)C)cc3)c(C3=C(c4cc(-c5cc6c(s5)C(C)(C)CCC6(C)C)sc4-c4cc5c(s4)C(C)(C)CCC5(C)C)C(F)(F)C(F)(F)C3(F)F)c2c1`
[out] 1.01

[in] Need RC [O] (oxidation potential of ring-closed isomer), item `CCOC(=O)CCCOc1cc2oc(-c3ccc(C(C)(C)C)cc3)c(C3=C(c4cc(-c5cc6c(s5)C(C)(C)CCC6(C)C)sc4-c4cc5c(s4)C(C)(C)CCC5(C)C)C(F)(F)C(F)(F)C3(F)F)c2cc1OCCCC(=O)OCC`
[out] 0.92

[in] Need RC [O] (oxidation potential of ring-closed isomer), item `CC(C)(C)c1ccc(-c2oc3ccccc3c2C2=C(c3cc(-c4ccc(C(C)(C)C)s4)sc3-c3ccc(C(C)(C)C)s3)C(F)(F)C(F)(F)C2(F)F)cc1`
[out] 1.1

[in] Need RC [O] (oxidation potential of ring-closed isomer), item `CC(=O)Oc1cc2oc(-c3ccc(C(C)(C)C)cc3)c(C3=C(c4cc(-c5cc(C(C)(C)C)cs5)sc4-c4cc(C(C)(C)C)cs4)C(F)(F)C(F)(F)C3(F)F)c2cc1OC(C)=O`
[out] 1.18

[in] Need RC [O] (oxidation potential of ring-closed isomer), item `COc1cc2oc(-c3ccc(C(C)(C)C)cc3)c(C3=C(c4cc(-c5cc6c(s5)C(C)(C)CCC6(C)C)sc4-c4cc5c(s4)C(C)(C)CCC5(C)C)C(F)(F)C(F)(F)C3(F)F)c2cc1OC`
[out] 0.91

[in] Need RC [O] (oxidation potential of ring-closed isomer), item `CC(=O)Oc1cc2oc(-c3ccc(C(C)(C)C)cc3)c(C3=C(c4cc(-c5ccc(C(C)(C)C)s5)sc4-c4ccc(C(C)(C)C)s4)C(F)(F)C(F)(F)C3(F)F)c2cc1OC(C)=O`
[out] 1.12

[in] Need RC [O] (oxidation potential of ring-closed isomer), item `CCOC(=O)CCCOc1cc2oc(-c3ccc(C(C)(C)C)cc3)c(C3=C(c4cc(-c5sc(C(C)(C)C)cc5C)sc4-c4sc(C(C)(C)C)cc4C)C(F)(F)C(F)(F)C3(F)F)c2cc1OCCCC(=O)OCC`
[out] 0.87
